I'd appreciate it if you could supply % Potentiation @ 3.33 μM Avg values for the items below.
test-target: human TMEM16A (TMEM16Aabc variant) (Homo sapiens, UniProt Q5XXA6, DEL476-501, form not given)
Sequence (Q5XXA6 with tags, fused parts or gaps DEL476-501): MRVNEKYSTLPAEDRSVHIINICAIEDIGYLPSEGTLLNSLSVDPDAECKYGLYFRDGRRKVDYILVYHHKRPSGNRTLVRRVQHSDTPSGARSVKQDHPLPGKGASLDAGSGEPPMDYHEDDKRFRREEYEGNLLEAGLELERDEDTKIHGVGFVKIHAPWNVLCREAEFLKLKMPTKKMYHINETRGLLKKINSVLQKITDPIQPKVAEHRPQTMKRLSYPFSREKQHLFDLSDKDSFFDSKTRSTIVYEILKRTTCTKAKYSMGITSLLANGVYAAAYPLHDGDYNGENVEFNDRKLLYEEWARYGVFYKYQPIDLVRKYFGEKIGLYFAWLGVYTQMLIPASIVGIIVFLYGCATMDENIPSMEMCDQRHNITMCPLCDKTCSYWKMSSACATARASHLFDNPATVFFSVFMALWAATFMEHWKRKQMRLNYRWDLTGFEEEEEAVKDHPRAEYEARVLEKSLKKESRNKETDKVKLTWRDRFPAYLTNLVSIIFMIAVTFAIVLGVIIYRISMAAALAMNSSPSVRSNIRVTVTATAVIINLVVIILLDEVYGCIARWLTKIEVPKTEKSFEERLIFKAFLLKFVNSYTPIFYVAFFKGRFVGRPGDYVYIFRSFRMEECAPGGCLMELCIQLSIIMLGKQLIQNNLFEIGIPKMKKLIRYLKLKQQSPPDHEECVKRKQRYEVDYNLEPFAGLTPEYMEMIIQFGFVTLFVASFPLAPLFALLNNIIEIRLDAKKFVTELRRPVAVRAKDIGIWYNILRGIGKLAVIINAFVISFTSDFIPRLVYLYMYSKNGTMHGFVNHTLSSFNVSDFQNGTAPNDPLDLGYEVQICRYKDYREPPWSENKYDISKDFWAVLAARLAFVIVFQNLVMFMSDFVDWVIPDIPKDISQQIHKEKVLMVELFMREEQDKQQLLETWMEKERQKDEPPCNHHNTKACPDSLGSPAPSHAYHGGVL
assay-notes: Automated whole-cell patch clamp (Qpatch) TMEM16A potentiator assay in FRT cells stably expressing human TMEM16A
Type: cell-based
study-conditions: 3.33 μM solution of test compound; percentage increase of baseline TMEM16A current
One number for each entry, in %.

Batch request: % Potentiation @ 3.33 μM Avg for each of the following compounds.
1. CC(C)(C#N)NC(=O)c1cc(NC(=O)C2(C)CCCC2)ccn1 [Example 83.4]
2. O=C(Cc1cc(Cl)ccc1O)Nc1ccnc(C(=O)N[C@H]2CCC[C@H]2O)c1 [Example 35.19]

58
248

Provide reported % Potentiation @ 3.33 μM Avg for each item, in the same order as listed.
1. O=C(Cc1cc(Cl)ccc1O)Nc1ccnc(C(=O)NC(CO)c2ccccn2)c1 (stereo not drawn) [Example 35.11]
2. COc1ccc(COc2ccc(Cl)cc2CC(=O)Nc2ccnc(C(=O)NC(C)(C)C)c2)cc1 [Example 56]
3. CC(C)(C)NC(=O)c1cc(NC(=O)Cc2cc(Cl)ccc2O)ncn1 [Example 85]
4. C#CC(C)(C)NC(=O)c1cc(NC(=O)Cc2ccc(C(F)(F)F)cc2)ccn1 [Example 5.35]

107
76
155
106

Batch request: % Potentiation @ 3.33 μM Avg for each of the following compounds.
1. CC(C)(C)NC(=O)c1cc(NC(=O)NCc2ccccc2)ccn1 [Example 64]
2. CC(C)(C)NC(=O)c1cc(NC(=O)Cc2ccccc2Cl)ccn1 [Example 5.20]
3. COC(C)c1cc(Cl)cc(CC(=O)Nc2ccnc(C(=O)NC(C)(C)C)c2)c1O (stereo not drawn) [Example 62]

[55, 221, 99]

----------
test-target: human TMEM16A (TMEM16Aabc variant) (Homo sapiens, UniProt Q5XXA6, DEL476-501, form not given)
assay-notes: Automated whole-cell patch clamp (Qpatch) TMEM16A potentiator assay in FRT cells stably expressing human TMEM16A
Type: cell-based
study-conditions: 3.33 μM solution of test compound; percentage increase of baseline TMEM16A current
Kindly state % Potentiation @ 3.33 μM Avg for each of the entries shown.
Answers are plain numbers, in %.

# annotated cases, reported % Potentiation @ 3.33 μM Avg shown
1. CC(C)(C)NC(=O)c1cc(NC(=O)Cc2ccc(Cl)cc2O)ccn1 [Example 3.6b] | 205
2. CC(C)(C#N)NC(=O)c1cc(NC(=O)C2CCC(F)(F)C2)ccn1 (stereo not drawn) [Example 83.3] | 16
3. CC(C)(C)NC(=O)c1cc(NC(=O)C2Cc3ccccc3C2)ccn1 [Example 23.3] | 59

List the reported % Potentiation @ 3.33 μM Avg of each molecule below.
1. CCOC(=O)CC(C)(C)NC(=O)c1cc(NC(=O)Cc2cc(Cl)ccc2O)ccn1 [Example 35.13]
2. CC(=O)Nc1ccc(C(=O)Nc2ccnc(C(=O)NC(C)(C)C#N)c2)cc1 [Example 83.29]
3. CC(C)(C)NC(=O)c1cccc(NC(=O)Cc2ccccc2O)c1 [Example 4.3]
4. CC(C)(CCNCC(F)(F)F)NC(=O)c1cc(NC(=O)Cc2cc(Cl)ccc2O)ccn1 [Example 43]
5. CC(C)(C)NC(=O)c1cc(NC(=O)Cc2cc(Cl)ccc2O)ccn1 [Example 3]

1: 191; 2: -9; 3: 151; 4: 174; 5: 287

# return % Potentiation @ 3.33 μM Avg for each item in the list
1. CC(C)(C)NC(=O)c1cc(NC(=O)C2CCc3c(Cl)ccc(O)c32)ccn1 (single isomer, unassigned) [Example 57a]
2. CC(C)(C)NC(=O)c1cc(NC(=O)Cc2cc(Cl)ccc2F)ccn1 [Example 5.3]
3. CCn1c(C(=O)Nc2ccnc(C(=O)NC(C)(C)C#N)c2)cc2ccccc21 [Example 83.18]
4. N#CC12CC(NC(=O)c3cc(NC(=O)Cc4ccccc4Cl)ccn3)(C1)C2 [Example 30.5]
5. CC(C)C(C)(C#N)NC(=O)c1cc(NC(=O)Cc2cc(Cl)ccc2O)ccn1 (stereo not drawn) [Example 37]
6. N#CC1(NC(=O)c2cc(NC(=O)Cc3ccccc3Cl)ccn2)CCC1 [Example 30]

1. 285
2. 152
3. 16
4. 63
5. 352
6. 113

For every item below, please supply its % Potentiation @ 3.33 μM Avg.
1. CC(C)(C)NC(=O)c1cc(NC(=O)Cc2ccccc2C(F)(F)F)ccn1 [Example 23.12]
2. N#CC1(NC(=O)c2cc(NC(=O)Cc3ccccc3Cl)ccn2)CCCC1 [Example 30.12]

1. 197
2. 314

Please state, for each entry, its recorded % Potentiation @ 3.33 μM Avg.
1. COc1ccc(C(=O)NC(C)(C)C)cc1NC(=O)Cc1cc(Cl)ccc1O [Example 16]
2. CC(C)Cc1cc(C(=O)Nc2ccnc(C(=O)NC(C)(C)C#N)c2)on1 [Example 83.9]

63
18

----------
Answer each item with its documented % Potentiation @ 3.33 μM Avg.
test-target: human TMEM16A (TMEM16Aabc variant) (Homo sapiens, UniProt Q5XXA6, DEL476-501, form not given)
assay-notes: Automated whole-cell patch clamp (Qpatch) TMEM16A potentiator assay in FRT cells stably expressing human TMEM16A
Assay type: cell-based
study-conditions: 3.33 μM solution of test compound; percentage increase of baseline TMEM16A current
Numbers only, in %.

1. CC1(NC(=O)c2cc(NC(=O)Cc3cc(Cl)ccc3O)ccn2)CCCC1 [Example 38] | 307
2. C#CC(C)(C)NC(=O)c1cc(NC(=O)Cc2ccccc2C(F)(F)F)ccn1 [Example 5.38] | 231
3. N#CC1(NC(=O)c2cc(NC(=O)Cc3cccc(Cl)c3)ccn2)CC1 [Example 23.1] | 150
4. C#CC(C)(C)NC(=O)c1cc(NC(=O)Cc2ccccc2Cl)ccn1 [Example 30.1] | 245

For every listed record, write down its % Potentiation @ 3.33 μM Avg.
1. CC(C)(C)c1ccc(O)c(CC(=O)Nc2ccnc(C(=O)NC34CC(C3)C4)c2)c1 [Example 25]
2. O=C(Cc1cc(Cl)ccc1O)Nc1ccnc(C(=O)NC2CCCC(O)C2)c1 (stereo not drawn) [Example 35.6]
3. COc1ccc(Cl)cc1CC(=O)Nc1cc(C(=O)NC(C)(C)C)ncn1 [Example 82]
4. CC(C)(C#N)NC(=O)c1cc(NC(=O)c2cnn(Cc3ccccc3)c2)ccn1 [Example 83.21]
5. O=C(Cc1cc(Cl)ccc1O)Nc1ccnc(C(=O)NCc2ccccc2)c1 [Example 35.15]

[330, 53, 88, 70, 158]

----------
test-target: human TMEM16A (TMEM16Aabc variant) (Homo sapiens, UniProt Q5XXA6, DEL476-501, form not given)
assay-notes: Automated whole-cell patch clamp (Qpatch) TMEM16A potentiator assay in FRT cells stably expressing human TMEM16A
Assay type: cell-based
study-conditions: 3.33 μM solution of test compound; percentage increase of baseline TMEM16A current
property-label: % Potentiation @ 3.33 μM Avg (%)
Answers are plain numbers, in %.

Illustrative cases are given below, each with its answer.
1) CC(C)(C)NC(=O)c1cc(NC(=O)Cc2cc(O)ccc2F)ccn1 [Example 3.13b] | 179
2) N#CC1(NC(=O)c2cc(NC(=O)Cc3cc(F)ccc3O)ccn2)CCOCC1 | 185
3) CC(C)(C)NC(=O)c1cc(NC(=O)Cc2ccc(C(C)(C)C)c(N)c2)ccn1 | 332
4) CC(C)(C)NC(=O)c1cc(NC(=O)Cc2cc(C#N)ccc2O)ccn1 | 162
5) N#CC1(NC(=O)c2cc(NC(=O)Cc3cc(Cl)ccc3O)ccn2)COC1 | 237

Provide each entry's % Potentiation @ 3.33 μM Avg from the list below.
1. CC(C)(C)NC(=O)c1cc(NC(=O)Cc2ccc(C(C)(C)C)cc2O)ccn1
2. C#CC(C)(C)NC(=O)c1cc(NC(=O)Cc2cc(F)ccc2O)ccn1
3. N#CC1(NC(=O)c2cc(NC(=O)Cc3cc(Cl)ccc3O)ccn2)CCC1

1. 219
2. 129
3. 354

Endpoint output: % Potentiation @ 3.33 μM Avg of "O=C(Cc1cc(Cl)ccc1O)Nc1ccnc(C(=O)N[C@H]2CC[C@@H](O)C2)c1" . Value?
144

----------
test-target: human TMEM16A (TMEM16Aabc variant) (Homo sapiens, UniProt Q5XXA6, DEL476-501, form not given)
assay-notes: Automated whole-cell patch clamp (Qpatch) TMEM16A potentiator assay in FRT cells stably expressing human TMEM16A
Assay type: cell-based
study-conditions: 3.33 μM solution of test compound; percentage increase of baseline TMEM16A current
I'd appreciate it if you could supply % Potentiation @ 3.33 μM Avg values for the items below.
Answers are plain numbers, in %.

Record excerpt, results attached:
1. CC(C)(C)OC(=O)N1CCCC(NC(=O)c2cc(NC(=O)Cc3cc(Cl)ccc3O)ccn2)C1 (centres unmarked) [Example 8.1] | 155
2. CC1(NC(=O)c2cccc(NC(=O)Cc3cc(F)ccc3O)c2)CCCCC1 [Example 35.20] | 240

Hello, I would appreciate it if you could give % Potentiation @ 3.33 μM Avg for each entry below.
1. COc1cccc(O)c1CC(=O)Nc1cccc(C(=O)NC(C)(C)C)c1 [Example 2.6]
2. CC1(NC(=O)c2cc(NC(=O)Cc3cc(Cl)ccc3O)ccn2)CCC1 [Example 1.6]
3. C#CC(C)(C)NC(=O)c1cc(NC(=O)Cc2ccc(Cl)c(O)c2)ccn1 [Example 92.2]

[140, 255, 71]
